Tgt: T1, human BDCA2 (human, UniProt Q8WTT0 1-213)
T1 sequence (looked up): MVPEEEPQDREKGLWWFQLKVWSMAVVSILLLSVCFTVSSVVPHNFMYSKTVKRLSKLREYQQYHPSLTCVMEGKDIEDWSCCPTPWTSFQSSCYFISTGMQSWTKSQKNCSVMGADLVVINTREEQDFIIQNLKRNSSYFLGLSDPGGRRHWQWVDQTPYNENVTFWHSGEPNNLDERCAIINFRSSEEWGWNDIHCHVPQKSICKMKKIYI
Protocol Summary: cell-based or functional assay
Quantity Name: IC50 for inhibiting cytokine IFNα release, CpG-A stimulated human PBMC (pM)
Give bare numbers, in pM.

Guide cases for IC50 for inhibiting cytokine IFNα release, CpG-A stimulated human PBMC, answers given:
[
  {
    "Binder": "mAb027 (antibody, V domains shown, Mouse hybridoma antibody) VH: DVQLQESGPGLVKPSQSLSLTCSVTGYSITSAYYWNWVRQFPGNQLECMGYITYDGSNNYNPSLKNRISITRDTSKNQFFLKLNSVTTEDTATYYCVRGGDYDDGGFAYWGQGTLVTVSA VL: DIQMTQSPASLSASVGETVTITCRASGNIHNYLAWYQQKQGKSPQLLVYNAKTLVDGVPSRFSGSGSGTEYSLKINSLQPEDFGIYFCQHFWIIPYTFGGGTKLEIR",
    "Unit Info": "pM",
    "Reported Result": 70
  },
  {
    "Binder": "mAb019 (antibody, V domains shown, Mouse hybridoma antibody) VH: EVKLVESGGDLVQPGGSLKLSCAASGFTFSDYYMYWVRQTPEKRLEWVAYISYSGDSTYYPDTVKGRFTISRDNAKNTLFLQMSRLKSEDTAMYYCARHSPSFPYYFDYWGQGTALTVSS VL: EIVLTQSPAITAASLGQKVTITCSASSSVSYMHWYQQKSGTSPKPWIYEISKLASGVPARFSGSGSGTSYSLTISSMEAEDAAIYYCQLWNYPLITFGGGTNLEIK",
    "Unit Info": "pM",
    "Reported Result": 3.32
  }
]

We next turn to a different binder, shown below.
Exercise: What does the record list as IC50 for inhibiting cytokine IFNα release, CpG-A stimulated human PBMC for mAb020 (antibody, V domains shown, Mouse hybridoma antibody) VH: DVQLQESGPGLVKPSQSLSLTCSVTGYSIASGYYWNWIRQFPGNKLEWMGYISFDGTYNYNPSLKDRFSITRDTSKNQFFLKLNSVTTEDTATYYCARGVDYPNAIDWWGQGTSVTVSS VL: DIVLTQSPASLAVSLGQRATISCRASESVSMHVTHLIHWYQQKPGQPPKLLIYVASNLESGVPARFSGSGSETDFTLNIHPVEEEDAATYFCQQSFEDPWTFGGGTKLEIK ?
Key: 6.15
